Test Method Notes: NCI Yeast Anticancer Drug Screen. Data for the rad14 strain (AID 159);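 further: 0% = growth of vehicle-treated control cultures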
Protocol Conditions: S. cerevisiae rad14 strain growth inhibition; at 100.0 µM
About 79,000 compounds went through this panel and 15% of them were active in at least one assay; those are over-represented in the sample as a whole. Activity calls are given as the source filed them. No stated cut-off is given here; in the data, active means growth inhibition above about 70%; inactive means the rest.
Pick one and only one: active, inactive

Per the records of this test, what outcome belongs to CCNc1nnc(CSc2nc(-c3ccccc3)c(-c3ccccc3)[nH]2)s1 ?
inactive

Per the records of this test, what outcome belongs to Cc1cc2c(cc1C(=O)CCC(=O)O)CC1(C2)Cc2cc(C)c(C(=O)CCC(=O)O)cc2C1 ?
inactive

Per the records of this test, what outcome belongs to NC1=NS(=O)(=O)N=C(N)C1=Cc1ccc([N+](=O)[O-])o1 ?
active

Per the records of this test, what outcome belongs to COc1ccc2sc3cccc(NCCN(C)C)c3c(=O)c2c1 ?
inactive

Per the records of this test, what outcome belongs to CN1CCc2ccccc2C1Cc1ccccc1NC(=O)c1sc2ccccc2c1Cl (stereo not drawn) ?
active

Per the records of this test, what outcome belongs to CC1(Cl)CC(O)C2(CC1Br)C1(C)OC1C1OC1(Br)C2(C)C (stereo not drawn) ?
active

Per the records of this test, what outcome belongs to Cc1ccc(S(=O)(=O)NCCSS(=O)(=O)c2ccc(C)cc2)cc1 ?
active

###

Test Method Notes: NCI Yeast Anticancer Drug Screen. Data for the sgs1 mgt1 strain (AID 161);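 further: 0% = growth of cultures given vehicle only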
Protocol Conditions: S. cerevisiae sgs1 mgt1 strain, at 50.0 µM (retest, dose inferred, filed as 5.0)
This is part of a sample that, as a whole, favours compounds with a hit. Of some 79,000 tested, about 15% had one in any assay. Active and inactive are the calls of the source. Rule as the data show it: active = growth inhibition above about 70%; inactive = the rest.
Pick one and only one: active, inactive

> print(dat)
                     compound     class
1   Cc1ccc2ccc3cccc4ccc1c2c34  inactive
2  CCCCN(CCCC)CCSc1ccc(Cl)cc1    active

Per the records of this test, what outcome belongs to CCCCCCCC1(N=[N+]=[N-])C(=O)c2ccccc2N(C)C1=O (stereo not drawn) ?
active

###

Test Method Notes: NCI Yeast Anticancer Drug Screen. Data for the bub3 strain (AID 167)
Protocol Conditions: S. cerevisiae bub3 mutant strain, at 11.0 µM
Compounds without any hit were thinned out: in the full panel of roughly 79,000, 15% have a hit. Calls of active or inactive are those of the source. Rule as the data show it: active = growth inhibition above about 70%; inactive = the rest.
Pick one and only one: active, inactive

Per the records of this test, what outcome belongs to CCCCCCCCNC(=O)C1=C(C)NC(C)=C(C(=O)NCCCCCCCC)C1 ?
inactive

Per the records of this test, what outcome belongs to CC(=O)Nc1ccc(/C=C(\C#N)c2ccc(C)cc2)cc1 ?
inactive

Per the records of this test, what outcome belongs to O=C1C=CC(=O)c2c(O)c(Nc3ccc(OC(F)(F)F)cc3)c(Cl)c(O)c21 ?
inactive

Per the records of this test, what outcome belongs to N#CC(C(=O)Nc1ccccc1)C1=C(Cl)C(=O)c2ccccc2C1=O (stereo unspecified) ?
active

Per the records of this test, what outcome belongs to O=C(COC(=O)c1cc(O)c(O)c(O)c1)c1ccc(-c2ccccc2)cc1 ?
inactive

Per the records of this test, what outcome belongs to O=[N+]([O-])c1cc(CCl)ccc1CCl ?
inactive

###

Test Method Notes: NCI Yeast Anticancer Drug Screen. Data for the CLN2oe strain (AID 163);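 further: 0% = growth of vehicle-only control cultures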
Protocol Conditions: S. cerevisiae CLN2oe strain, at 100.0 µM, active compounds read high
About 79,000 compounds went through this panel and 15% of them were active in at least one assay; those are over-represented in the sample as a whole.
Recorded growth inhibition for the following molecules
// units = %; emit number, no label

> print(dat)
                                   molecule   observation.type  test.result
1  O=C(OCCN1CCCCCC1)C(c1ccsc1)C1CCCCC1 (stereo not drawn)  growth inhibition           72
2  O=C(NCCCCNCCCNC(=O)c1cc(-c2ccccc2)nc2ccccc12)c1cc(-c2ccccc2)nc2ccccc12  growth inhibition           91

Now for another entry.
Field request: growth inhibition | item: CC(C)/C(Cl)=N\OC(=O)Nc1ccccc1F
23
